# Procedure summary: PK and bioavailability after i.v., i.p. and s.c. administration in male SD rats
# Stated conditions: male, SD, rat, plasma, iv, 5 mg/kg
Ends that are not written are not given here.

Substance	AUC(0-inf) (ng·h/mL)
PEGKGEQEHSQQKEEEEEMAV-NH2 [PSTi8]	8530

###

# Procedure summary: Plasma stability study
# Type: in vitro ADME
# Stated conditions: 5 µM, at 4 h, rat plasma, 37 °C; read-out: plasma stability (% drug remaining)
Ends that are not written are not given here.

Substance	remaining at 4 h, 5 µM, %
PEGKGEQEHSQQKEEEEEMAV-NH2 [PSTi8]	90.6

###

# Procedure summary: Dose proportionality PK study, i.p., male SD rats
# Stated conditions: male, SD, rat, plasma, ip, 10 mg/kg
Ends that are not written are not given here.
Measurement label: AUC(0-inf) (ng·h/mL)

Substance	Number
PEGKGEQEHSQQKEEEEEMAV-NH2 [PSTi8]	32400
